Data origin: patent EP4786492A1

Measured Target: human delta-like ligand 3 (DLL3) on SHP77 cells (human) (UniProt Q9NYJ7)
Sequence (Q9NYJ7 27-618, stated change not applied): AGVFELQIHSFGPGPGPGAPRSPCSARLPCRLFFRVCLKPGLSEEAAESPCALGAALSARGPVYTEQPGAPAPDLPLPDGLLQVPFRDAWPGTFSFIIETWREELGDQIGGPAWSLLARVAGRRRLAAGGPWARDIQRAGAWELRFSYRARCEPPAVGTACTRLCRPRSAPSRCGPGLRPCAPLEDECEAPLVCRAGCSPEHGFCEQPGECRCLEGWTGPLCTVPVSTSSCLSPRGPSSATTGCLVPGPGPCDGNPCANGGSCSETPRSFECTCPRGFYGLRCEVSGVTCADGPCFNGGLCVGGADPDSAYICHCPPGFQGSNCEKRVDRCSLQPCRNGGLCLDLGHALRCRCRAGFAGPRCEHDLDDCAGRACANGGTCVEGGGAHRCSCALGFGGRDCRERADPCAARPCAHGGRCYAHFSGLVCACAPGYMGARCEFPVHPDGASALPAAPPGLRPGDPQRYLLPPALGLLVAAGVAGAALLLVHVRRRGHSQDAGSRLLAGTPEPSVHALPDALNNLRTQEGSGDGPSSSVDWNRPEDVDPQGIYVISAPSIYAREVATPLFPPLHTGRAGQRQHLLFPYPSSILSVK
Assay Info: FACS on SHP77 cells
Parameter Measured: MFI at 0.00128 nM (MFI)
Numbers only here, please. The scale is MFI.

The following binders have reported results that may help.
Hab015VL4VH5a-hFc (scFv, part only; not given: VL-VH linker and human IgG1 Fc, V domains shown, not shown: another chain or arm of the molecule; a dimerising Fc or GST; small tags and cut ends) VL: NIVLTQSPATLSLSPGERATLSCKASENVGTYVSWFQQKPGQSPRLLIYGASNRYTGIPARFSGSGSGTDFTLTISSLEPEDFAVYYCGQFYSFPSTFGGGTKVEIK VH: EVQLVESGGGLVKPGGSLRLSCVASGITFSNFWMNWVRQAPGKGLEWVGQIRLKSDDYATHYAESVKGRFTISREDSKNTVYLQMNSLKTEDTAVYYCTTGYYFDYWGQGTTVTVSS: 100
Hab006VL1VH4-hFc (scFv, part only; not given: VL-VH linker and human IgG1 Fc, V domains shown, not shown: another chain or arm of the molecule; a dimerising Fc or GST; small tags and cut ends) VL: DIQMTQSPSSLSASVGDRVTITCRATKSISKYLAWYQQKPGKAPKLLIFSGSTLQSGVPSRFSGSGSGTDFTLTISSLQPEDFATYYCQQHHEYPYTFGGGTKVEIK VH: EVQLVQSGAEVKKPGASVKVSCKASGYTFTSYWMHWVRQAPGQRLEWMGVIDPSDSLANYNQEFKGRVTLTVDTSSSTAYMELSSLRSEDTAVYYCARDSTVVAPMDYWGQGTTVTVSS: 208

Here is the next item to consider.
Note MFI at 0.00128 nM for the binder shown: Hab014VL3VH1-hFc (scFv, part only; not given: VL-VH linker and human IgG1 Fc, V domains shown, not shown: another chain or arm of the molecule; a dimerising Fc or GST; small tags and cut ends) VL: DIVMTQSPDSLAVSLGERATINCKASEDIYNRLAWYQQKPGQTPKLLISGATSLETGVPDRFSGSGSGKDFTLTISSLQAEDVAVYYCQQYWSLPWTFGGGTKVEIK VH: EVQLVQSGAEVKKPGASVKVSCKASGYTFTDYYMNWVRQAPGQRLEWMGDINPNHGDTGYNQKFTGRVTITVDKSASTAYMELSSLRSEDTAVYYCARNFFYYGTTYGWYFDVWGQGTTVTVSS
91
